FYI, the data here is from patent US9133235B2.

Biological target: CYP2C9 (Homo sapiens, UniProt P11712)
Construct: purchased BD Gentest, Becton-Dickinson (Supersomes); host or cells: insect cells (microsomes)
Sequence (P11712 whole entry): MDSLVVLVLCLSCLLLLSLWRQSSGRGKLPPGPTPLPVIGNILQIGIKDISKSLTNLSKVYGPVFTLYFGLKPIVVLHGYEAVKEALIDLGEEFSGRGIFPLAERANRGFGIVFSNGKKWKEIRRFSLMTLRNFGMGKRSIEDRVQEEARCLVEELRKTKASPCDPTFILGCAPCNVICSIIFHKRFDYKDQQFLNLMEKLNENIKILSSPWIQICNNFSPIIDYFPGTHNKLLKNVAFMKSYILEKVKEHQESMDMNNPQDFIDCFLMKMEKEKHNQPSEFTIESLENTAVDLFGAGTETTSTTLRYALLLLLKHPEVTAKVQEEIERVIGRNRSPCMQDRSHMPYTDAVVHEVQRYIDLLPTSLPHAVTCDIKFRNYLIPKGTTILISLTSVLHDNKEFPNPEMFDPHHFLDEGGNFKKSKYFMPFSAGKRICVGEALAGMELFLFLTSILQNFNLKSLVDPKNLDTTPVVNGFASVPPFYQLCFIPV
Assay: Cytochrome P450 inhibition, CYP2C9
Type: in vitro ADME
Settings: Supersomes; read-out: IC50 (μM) 2C9
Measurement Kind: IC50
A complete answer gives the number followed by the unit.

In: Can you look up the measured IC50 of CCC[C@@H]1NC(=O)[C@@H](C(C)C)NC(=O)[C@@H](Cc2ccc(O)c(C(C)(C)C)c2)NCCOc2ccccc2CCCNC1=O for me?
Out: 44.5 µM

In: Proceed to CCC[C@@H]1NC(=O)[C@@H](C(C)C)NC(=O)[C@@H](Cc2cccc(F)c2)N[C@@H](C)COc2ccccc2CCCNC1=O
Out: 26.9 µM
